# target or test system: T1, 人IL-18Rβ蛋白 (IL-18Rβ antigen) (human)
# T1 chain: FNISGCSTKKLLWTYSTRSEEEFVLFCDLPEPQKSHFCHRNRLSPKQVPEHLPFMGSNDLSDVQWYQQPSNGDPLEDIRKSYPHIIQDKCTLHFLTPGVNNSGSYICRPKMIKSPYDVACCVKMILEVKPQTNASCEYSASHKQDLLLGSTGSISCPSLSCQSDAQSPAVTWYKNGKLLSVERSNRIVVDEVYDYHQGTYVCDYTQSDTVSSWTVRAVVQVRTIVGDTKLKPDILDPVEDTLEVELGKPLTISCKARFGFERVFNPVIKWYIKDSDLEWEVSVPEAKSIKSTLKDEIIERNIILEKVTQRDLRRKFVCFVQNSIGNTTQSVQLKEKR
# experiment description: SPR (Biacore 8K), Fab captured; ratio of kd of C056-WT to kd of the clone

- binder: "A036 Fab clone (Fab, V domains shown) VH: EVQLVESGGGLVQPGGSLRLSCAASGINLYYSSMHWVRQAPGKGLEWVASIYSSNGRTYYADSVKGRFTISADTSKNTAYLQMNSLRAEDTAVYYCARASFSHGYGWYGLDYWGQGTLVTVSS VL: DIQMTQSPSSLSASVGDRVTITCRASQSVSSAVDWYQQKPGKAPKLLIYSASSLYSGVPSRFSGSRSGTDFTLTISSLQPEDFATYYCQQYGYHDAGLITFGQGTKVEIK"
  比值(kd): 17.2
- binder: "A038 Fab clone (Fab, V domains shown, Mutations against C056-WT: VL-A34E/VH-F27I) VH: EVQLVESGGGLVQPGGSLRLSCAASGINLYYSSMHWVRQAPGKGLEWVASIYSSNGRTYYADSVKGRFTISADTSKNTAYLQMNSLRAEDTAVYYCARSSFSHGYGWYGLDYWGQGTLVTVSS VL: DIQMTQSPSSLSASVGDRVTITCRASQSVSSAVEWYQQKPGKAPKLLIYSASSLYSGVPSRFSGSRSGTDFTLTISSLQPEDFATYYCQQYGYHDAGLITFGQGTKVEIK"
  比值(kd): 21
- binder: "A037 Fab clone (Fab, V domains shown, Mutations against C056-WT: VL-S31F/VL-A34D/VH-F27L) VH: EVQLVESGGGLVQPGGSLRLSCAASGLNLYYSSMHWVRQAPGKGLEWVASIYSSNGRTYYADSVKGRFTISADTSKNTAYLQMNSLRAEDTAVYYCARSSFSHGYGWYGLDYWGQGTLVTVSS VL: DIQMTQSPSSLSASVGDRVTITCRASQSVSFAVDWYQQKPGKAPKLLIYSASSLYSGVPSRFSGSRSGTDFTLTISSLQPEDFATYYCQQYGYHDAGLITFGQGTKVEIK"
  比值(kd): 1190
- binder: "A039 Fab clone (Fab, V domains shown, Mutations against C056-WT: VL-A34D/VH-F27I) VH: EVQLVESGGGLVQPGGSLRLSCAASGINLYYSSMHWVRQAPGKGLEWVASIYSSNGRTYYADSVKGRFTISADTSKNTAYLQMNSLRAEDTAVYYCARSSFSHGYGWYGLDYWGQGTLVTVSS VL: DIQMTQSPSSLSASVGDRVTITCRASQSVSSAVDWYQQKPGKAPKLLIYSASSLYSGVPSRFSGSRSGTDFTLTISSLQPEDFATYYCQQYGYHDAGLITFGQGTKVEIK"
  比值(kd): 39.7
- binder: "A040 Fab clone (Fab, V domains shown) VH: EVQLVESGGGLVQPGGSLRLSCAASGLNLYYSSMHWVRQAPGKGLEWVASIYSSNGRTYYADSVKGRFTISADTSKNTAYLQMNSLRAEDTAVYYCARSSFSHGYGWYGLDYWGQGTLVTVSS VL: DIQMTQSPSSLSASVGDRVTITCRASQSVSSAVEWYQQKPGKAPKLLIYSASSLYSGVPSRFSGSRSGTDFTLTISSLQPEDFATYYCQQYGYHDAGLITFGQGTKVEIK"
  比值(kd): 14.9
